- system_name: BRD4 Bromodomain 1 (BRD4 BD1) (Homo sapiens, UniProt O60885)
- Construct: 44-168 and BRD4 BD2
- assay_name: AlphaScreen binding assay, BRD4 BD1
- condition_summary: His-tagged BRD4 BD1 50 nM, biotinylated H4 (1-21) K5/8/12/16 tetra-acetylated peptide 50 nM, compounds listed under IC50 range headings

| substance_smiles | IC50 |
| --- | --- |
| CCCOc1c(-c2cnn(C3CCNCC3)c2)ccc2c1CC[C@H](C)N2C(=O)C1CC1 | 100 to 1000 nM |
| COC(=O)N1c2c(F)cc(-c3cn[nH]c3)c(OC3CCC3)c2CC[C@@H]1C | 100 to 1000 nM |
| COC(=O)N1c2ccc(-c3cnn(C4CCS(=O)(=O)CC4)c3)c(OC3CCC3)c2CC[C@@H]1C | 100 to 1000 nM |
| CC(=O)N1c2ccc(-c3cnn(C4CC4)c3)c(OCc3ccn(C)n3)c2CC[C@@H]1C | 1000 to 10000 nM |
| CC(=O)N1c2ccc(-c3cnn(C4CC4)c3)c(OCC(=O)N(C)C)c2CC[C@@H]1C | 100 to 1000 nM |
| C[C@H]1CCc2c(ccc(-c3cn(C)nn3)c2Oc2ccccc2F)N1C(=O)C1CC1 | 100 to 1000 nM |
| CC(=O)N1c2ccc(-c3cnn(C4CC4)c3)c(OCS(=O)(=O)N(C)C)c2CC[C@@H]1C | 1000 to 10000 nM |
| COC(=O)N1c2ccc(-c3cnn(CC(C)(C)O)c3)c(OC[C@H]3CCC(=O)N3)c2CC[C@@H]1C | 1000 to 10000 nM |
| CC(=O)N1c2ccc(-c3cnn(C4CC4)c3)c(Oc3nccc4ccccc34)c2CC[C@@H]1C | 1000 to 10000 nM |

----------
- system_name: BRD4 Bromodomain 1 (BRD4 BD1) (Homo sapiens)
- Construct: 44-168 and BRD4 BD2
- assay_name: AlphaScreen binding assay, BRD4 BD1
- condition_summary: His-tagged BRD4 BD1 50 nM, biotinylated H4 (1-21) K5/8/12/16 tetra-acetylated peptide 50 nM, compounds listed under IC50 range headings
# IC50 per record follows

| molecule | IC50 |
| --- | --- |
| C[C@H]1CCc2c(ccc(-c3c[nH]nn3)c2OC2CCC2)N1C(=O)C1CC1 | 100 to 1000 nM |
| C[C@H]1CCc2c(ccc(-c3cnn(C)c3)c2OC2CCC2)N1C(=O)C1CC1 | 100 to 1000 nM |
| C[C@H]1CCc2c(ccc(-c3cnn(C4CNC4)c3)c2Oc2cc(F)cc(F)c2)N1C(=O)C1CC1 | 100 to 1000 nM |
| COC(=O)N1c2ccc(-c3cnn(C4CC(O)C4)c3)c(OC3CCC3)c2CC[C@@H]1C (stereo partly shown) | 100 to 1000 nM |
| COC(=O)N1c2ccc(C3CC3)c(Oc3ccccc3)c2CC[C@@H]1C | ≥ 10000 nM |
| COC(=O)N1c2ccc(-c3cnn(CCS(C)(=O)=O)c3)c(Oc3ccc(C(F)(F)F)cn3)c2CC[C@@H]1C | 1000 to 10000 nM |
| CCCOc1c(-c2nc3ccccc3o2)ccc2c1CC[C@H](C)N2C(C)=O | 1000 to 10000 nM |
